- tested.target: IDH1 R132C (Homo sapiens, UniProt O75874, R132C)
- Construct: 6xHis
- Sequence (O75874 whole entry R132C): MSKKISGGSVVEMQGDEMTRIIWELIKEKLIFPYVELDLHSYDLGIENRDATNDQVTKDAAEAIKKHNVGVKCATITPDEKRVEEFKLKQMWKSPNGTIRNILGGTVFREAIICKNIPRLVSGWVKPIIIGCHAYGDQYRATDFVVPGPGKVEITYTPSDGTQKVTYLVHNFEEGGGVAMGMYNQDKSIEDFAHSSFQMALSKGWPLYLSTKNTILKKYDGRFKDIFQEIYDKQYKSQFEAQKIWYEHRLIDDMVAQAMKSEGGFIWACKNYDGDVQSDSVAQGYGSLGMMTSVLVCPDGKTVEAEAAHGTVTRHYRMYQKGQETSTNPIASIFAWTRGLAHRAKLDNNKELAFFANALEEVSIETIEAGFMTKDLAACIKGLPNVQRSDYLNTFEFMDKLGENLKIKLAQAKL
- experiment.description: Biochemical assay for IDH inhibition (NADPH fluorescence), mutant IDH1 R132C
- conditions.used: 25 nM IDH1-R132C, 1 hour pre-incubation, in triplet
attribute.measured: IC50

Please review the following examples before continuing.
Problem: Given the entry CCN1Cc2c(ccnc2N[C@@H](C)c2ccc(Cc3ccccc3)c(F)c2)C1=O [Compound 52] , report its measured IC50.
Solution: 100 to 500 nM

Problem: What value of measured IC50 is listed for CCN1Cc2c(N[C@@H](C)c3ccc(Oc4ccc(C)cc4)c(F)c3)ncc(F)c2C1=O [Compound 18] ?
Solution: > 1000 nM

Problem: Name the recorded IC50 for CCN1Cc2c(ccnc2N[C@@H](C)c2ccc(C3CCN(C(C)(C)C)CC3)c(F)c2)C1=O [Compound 36] .
Solution: > 1000 nM

Problem: Request the reported IC50 associated with CCN1Cc2c(ccnc2N[C@@H](C)c2cc(F)c(-c3cn(C(C)(C)C)cn3)cc2F)C1=O [Compound 160]
Solution: 100 to 500 nM

Problem: Endpoint output: IC50 of CCN1Cc2c(ccnc2N[C@@H](C)c2cc(F)c(-c3ccnc(C(C)(C)C(F)(F)F)c3)cc2F)C1=O [Compound 105] . Value?
Solution: < 100 nM

Problem: Query (molecule): CCN1Cc2c(ccnc2N[C@H](C)c2cn(-c3ccc(Cl)cc3)cn2)C1=O [Compound 58] ; field requested: IC50
Solution: > 1000 nM

Further cases:
Problem: Query (molecule): CCN1Cc2c(N[C@@H](C)c3ccc(-c4ccnc(C(C)(C)C)c4)c(F)c3)ncnc2C1=O [Compound 66] ; field requested: IC50
Solution: > 1000 nM

Problem: Query (molecule): COCCN1Cc2c(ccnc2N[C@@H](C)c2cc(F)c(-c3ccnc(C(C)(C)C)c3)cc2F)C1=O [Compound 158] ; field requested: IC50
Solution: > 1000 nM

Problem: Can you share its IC50? I mean this molecule: CCN1Cc2c(ccnc2N[C@@H](C)c2cc(F)c(-c3cc(OC(C)(C)C)ncc3C)cc2F)C1=O [Compound 151]
Solution: 100 to 500 nM

* * *

- tested.target: IDH (endogenous IDH1 R132C) in HT1080 cell (Homo sapiens, UniProt O75874, R132C)
- Construct: which harbor endogenous heterozygous IDH1 R132C and R132H mutation respectively and accumulate D-2-HG
- experiment.description: Cell-based assay for IDH inhibition (decrease of D-2-HG) in HT1080 cells
- conditions.used: human fibrosarcoma cell line HT1080, 16 hours treatment, D-2-HG by LC-MS, in triplet
pIC50: −log10 of the molar value.
attribute.measured: pIC50

Problem: Entry CCN1Cc2c(ccnc2N[C@@H](C)c2ccc(Nc3ccccc3)c(F)c2)C1=O : reported pIC50 = ?
Solution: < 6.00

Problem: Which pIC50 value belongs to CCN1Cc2c(ccnc2N[C@@H](C)c2cc(F)c(-c3cc(C(F)(F)F)cc(Cl)n3)cc2F)C1=O ?
Solution: 6.00 to 6.30

Problem: What pIC50 value was documented for this compound, CCN1Cc2c(ccnc2N[C@@H](C)c2cc(F)c(-c3ccnc(C(C)(F)F)c3)cc2F)C1=O ?
Solution: 6.30 to 7.00

Further cases:
Problem: # get_value(readout='pIC50', item= CCN1Cc2c(ccnc2N[C@@H](C)c2ccc(OC3Cc4ccccc4C3)c(F)c2)C1=O )
Solution: < 6.00

* * *

Form field: pIC50 (one value per entry).
- tested.target: IDH1 R132C (Homo sapiens, UniProt O75874, R132C)
- Construct: 6xHis
- experiment.description: Biochemical assay for IDH inhibition (NADPH fluorescence), mutant IDH1 R132C
- conditions.used: 25 nM IDH1-R132C, 1 hour pre-incubation, in triplet
pIC50: −log10 of the molar value.

Check out these entries, answers already filled in.
Problem: If you can, please state the reported pIC50 value of CCN1Cc2c(ccnc2N[C@@H](C)c2ccc(OC3CCC(F)(F)C3)c(F)c2)C1=O (stereo partly shown) .
Solution: < 6.00

Problem: I have this compound here, CCN1Cc2c(ccnc2N[C@@H](C)c2cc(F)c(-c3ccnc(-c4ccnc(Cl)c4)c3)cc2F)C1=O , and I need its recorded pIC50.
Solution: 6.00 to 6.30

Problem: May I ask what pIC50 has been recorded for CCN1Cc2c(ccnc2N[C@@H](C)c2cc(F)c(-c3ccnc(C4CCC4)c3)cc2F)C1=O ?
Solution: 6.30 to 7.00

// next item, pIC50 requested
Problem: What does the record list as pIC50 for CCN1Cc2c(ccnc2N[C@@H](C)c2cc(F)c(-c3ccnc(C(C)(C)F)c3)cc2F)C1=O ?
Solution: 6.30 to 7.00

* * *

- tested.target: IDH1 R132H (Homo sapiens, UniProt O75874, R132H)
- Construct: 6xHis
- Sequence (O75874 whole entry R132H): as the sequence (O75874 whole entry R132C) above, with C132H counted along it
- experiment.description: Biochemical assay for IDH inhibition (NADPH fluorescence), mutant IDH1 R132H
- conditions.used: 50 nM IDH1-R132H, 1 hour pre-incubation, in triplet
List of IC50 values.

Here is how some molecules turned out for IC50.
Problem: Param item = CCN1Cc2c(ccnc2N[C@@H](C)c2ccc(Oc3ccc4c(c3)CCN4C)c(F)c2)C1=O ; retrieve measured IC50.
Solution: 100 to 500 nM

Problem: I'd like to know its IC50. The molecule in question is CCN1Cc2c(ccnc2N[C@@H](C)c2ccc(Cc3ccccc3)c(F)c2)C1=O
Solution: 100 to 500 nM

Problem: So what does the record say about IC50 for CCN1Cc2c(ccnc2N[C@@H](C)c2cc(F)c(-c3cc(C(F)(F)F)ccn3)cc2F)C1=O ?
Solution: < 100 nM

New cases:
Problem: Requested field: IC50. Item: CCN1Cc2c(ccnc2N[C@@H](C)c2ccc(C3CCN(C(C)(C)C)CC3)c(F)c2)C1=O
Solution: > 1000 nM

Problem: Please report the recorded IC50 for CCN1Cc2c(ccnc2N[C@@H](C)c2cc(F)c(-c3ccnc(-c4cncc(Cl)c4)c3)cc2F)C1=O .
Solution: 100 to 500 nM

Problem: Can you share its IC50? I mean this molecule: CCN1Cc2c(ccnc2N[C@@H](C)c2ccc(OC3CCCC3)c(F)c2)C1=O
Solution: 100 to 500 nM

Problem: Please report the recorded IC50 for CCN1Cc2c(ccnc2N[C@@H](C)c2cc(F)c(-c3cc(C(C)(C)F)nc(OC)n3)cc2F)C1=O .
Solution: < 100 nM

Problem: Entry CCN1Cc2c(ccnc2N[C@@H](C)c2ccc(Oc3ccc4c(cnn4C)c3)c(F)c2)C1=O has what IC50?
Solution: 100 to 500 nM

* * *

Entries and their measured IC50 follow.
- tested.target: IDH1 R132C (Homo sapiens, UniProt O75874, R132C)
- Construct: 6xHis
- experiment.description: Biochemical assay for IDH inhibition (NADPH fluorescence), mutant IDH1 R132C
- conditions.used: 25 nM IDH1-R132C, 1 hour pre-incubation, in triplet
- From the text: The present disclosure provides a biochemical assay method for detecting the IDH inhibition and selectivity of the compounds by detecting IDH enzyme activity directly. Wild-type IDH enzymes convert NADP^+ to NADPH when catalyzing the α-KG producing reaction. […] So, the activity of wild-type and mutant IDH1/2 could be measured by monitoring NADPH level change as NADPH is fluorescent (Excitation 340 nm, Emission 460 nm). […]

Problem: Need IC50, item CCN1Cc2c(ccnc2N[C@@H](C)c2cc(F)c(-c3cc(C(C)(C)C)ncc3OC)cc2F)C1=O
Solution: < 100 nM

Problem: Would you mind telling me what IC50 value was observed for CCN1Cc2c(ccnc2N[C@@H](C)c2ncc(-c3ccc(F)c(C)c3)cn2)C1=O ?
Solution: > 1000 nM

Problem: What does the data say about its IC50? Entry: CCN1Cc2c(ccnc2N[C@@H](C)c2cc(F)c(-c3nc(C(C)(C)C)ccc3OC)cc2F)C1=O
Solution: < 100 nM

Problem: Given CCN1Cc2c(ccnc2N[C@@H](C)c2ccc(-c3ccnc(C(C)(C)C)c3)c(F)c2F)C1=O , state its recorded IC50.
Solution: 100 to 500 nM

Problem: For the compound CCN1Cc2c(ccnc2N[C@@H](C)c2ccc(Oc3ccc(C(C)(C)C)nc3)c(F)c2)C1=O , what IC50 is on record?
Solution: > 1000 nM

More entries:
Problem: What value of IC50 has been recorded for this entry: CCN1Cc2c(ccnc2N[C@@H](C)c2cc(F)c(-c3ccnc(C(C)(C)C)n3)cc2F)C1=O
Solution: 100 to 500 nM

Problem: Give the measured IC50 of CCN1Cc2c(ccnc2N[C@@H](C)c2cc(F)c(-c3cc(C(C)(C)F)c(Cl)cn3)cc2F)C1=O .
Solution: < 100 nM
